Values from BindingDB's records for doi:10.1016/j.bmc.2020.115644

# Experimental System: NAD(+) hydrolase SARM1 (Homo sapiens, UniProt Q6SZW1)
# Sequence (Q6SZW1 whole entry, the tested form may be a part): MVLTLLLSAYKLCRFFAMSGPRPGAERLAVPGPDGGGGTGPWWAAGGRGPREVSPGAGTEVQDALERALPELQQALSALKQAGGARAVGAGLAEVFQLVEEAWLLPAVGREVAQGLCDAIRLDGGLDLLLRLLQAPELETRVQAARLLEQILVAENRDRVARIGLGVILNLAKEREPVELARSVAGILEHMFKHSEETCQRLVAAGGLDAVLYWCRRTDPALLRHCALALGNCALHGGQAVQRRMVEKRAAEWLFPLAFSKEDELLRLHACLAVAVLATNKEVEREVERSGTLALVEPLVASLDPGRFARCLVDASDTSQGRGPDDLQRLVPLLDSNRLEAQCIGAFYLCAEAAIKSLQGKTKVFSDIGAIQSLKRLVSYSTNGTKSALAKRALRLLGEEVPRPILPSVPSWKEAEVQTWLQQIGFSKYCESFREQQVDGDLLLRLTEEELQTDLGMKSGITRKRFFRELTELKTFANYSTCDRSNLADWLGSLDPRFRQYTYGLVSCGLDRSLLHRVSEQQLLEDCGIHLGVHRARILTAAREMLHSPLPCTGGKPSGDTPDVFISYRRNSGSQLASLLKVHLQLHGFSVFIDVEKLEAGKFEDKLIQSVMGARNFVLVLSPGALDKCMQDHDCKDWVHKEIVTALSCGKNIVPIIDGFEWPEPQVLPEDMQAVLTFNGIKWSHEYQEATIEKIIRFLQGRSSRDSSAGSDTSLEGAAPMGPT
# Measurement Notes: Inhibition of recombinant human SARM1 TIR domain (561 to 724 residues) expressed in Escherichia coli C43 (DE3) cells lysates using ENAD as substrate preincubated for 20 mins followed by ENAD addition and measured at 15 sec interval for 15 mins
pIC50: −log10 of the molar value. Structures can show the parent of a compound that is named as a salt.
Metric Name: pIC50

>>> value_reported("Nc1ccc(/N=N/c2ccccc2)c(N)n1")
3.84
>>> value_reported("C[C@H]1c2cccc(O)c2C(=O)C2=C(O)[C@]3(O)C(=O)C(C(N)=O)=C(O)[C@@H](N(C)C)[C@@H]3[C@@H](O)[C@@H]21 [DOXYCYCLINE HYDROCHLORIDE]")
3.84
